# target-under-test: native (wild-type) KIT and KIT mutants
# protocol-text: In vitro kinase assays
# measurement-conditions: V559D, V560G, T670I, D816H, D820E and A829P
pIC50: −log10 of the molar value.
property-name: pIC50

Name the recorded pIC50 for Cc1ccc(C(=O)Nc2ccc(CN3CCN(C)CC3)c(C(F)(F)F)c2)cc1C#Cc1cnc2cccnn12 [Ponatinib] .
≥ 7.96

----------
Below, each entry is listed alongside its reported IC50.
# System: GIST48B cells (KIT-independent)
# protocol-text: Viability assay, GIST-derived cell line GIST48B
# Format: cell-based
# measurement-conditions: Homo sapiens, 72 h

Some compounds with known IC50 results, for comparison:
1) CCN(CC)CCNC(=O)c1c(C)[nH]c(/C=C2\C(=O)Nc3ccc(F)cc32)c1C
> 5000 nM
2) Cc1ccc(C(=O)Nc2ccc(CN3CCN(C)CC3)c(C(F)(F)F)c2)cc1C#Cc1cnc2cccnn12
806 nM

Name the recorded IC50 for CNC(=O)c1cc(Oc2ccc(NC(=O)Nc3ccc(Cl)c(C(F)(F)F)c3)c(F)c2)ccn1 .
> 5000 nM

----------
# System: Ba/F3 cells harboring KIT Ex11 (Δ557-558) + ATP pocket or A-loop secondary mutants
# protocol-text: cells
# measurement-conditions: Mus musculus, BaF3, 72 h, Δ557-558 + ATP pocket secondary mutants
property-name: IC50

Name the recorded IC50 for CCN(CC)CCNC(=O)c1c(C)[nH]c(/C=C2\C(=O)Nc3ccc(F)cc32)c1C .
≤ 12 nM

----------
# Test system: GIST430/654 cells (KIT Δ560-576/ V654A)
# protocol-text: Viability assay, GIST-derived cell line GIST430/654
# Type: cell-based
# measurement-conditions: Homo sapiens, GIST-430/654, 72 h
Below, each entry is listed alongside its reported IC50.
Record the value in nM, omitting the unit from your answer.

Some molecules with known IC50 results, for comparison:
1. CNC(=O)c1cc(Oc2ccc(NC(=O)Nc3ccc(Cl)c(C(F)(F)F)c3)c(F)c2)ccn1
1000
2. CCN(CC)CCNC(=O)c1c(C)[nH]c(/C=C2\C(=O)Nc3ccc(F)cc32)c1C
90

// next entry
Name the recorded IC50 for Cc1ccc(C(=O)Nc2ccc(CN3CCN(C)CC3)c(C(F)(F)F)c2)cc1C#Cc1cnc2cccnn12 .
159

----------
# Test system: Ba/F3 cells harboring KIT Ex11 (Δ557-558) + ATP pocket or A-loop secondary mutants
# protocol-text: cells
# measurement-conditions: Mus musculus, BaF3, 72 h
pIC50: −log10 of the molar value.
property-name: pIC50

Name the recorded pIC50 for Cc1ccc(C(=O)Nc2ccc(CN3CCN(C)CC3)c(C(F)(F)F)c2)cc1C#Cc1cnc2cccnn12 .
≥ 7.89

----------
# Test system: Ba/F3 cells harboring KIT exon 11 primary mutants
# protocol-text: Ba/F3 viability assay, KIT exon 11 primary mutants
# Assay type: cell-based, Mouse
# measurement-conditions: all KIT exon 11 mutants tested, including Δ551-554; listed as ponatinib
property-name: IC50

Name the recorded IC50 for Cc1ccc(C(=O)Nc2ccc(CN3CCN(C)CC3)c(C(F)(F)F)c2)cc1C#Cc1cnc2cccnn12 [Ponatinib] .
1 to 15 nM
